Tested on: Malme-3M
Experiment: Growth inhibition of human MALME-3M cells incubated for 48 hrs by sulforhodamine B assay
Assay type: functional
result-type: LC50

Sample records with LC50:
* C/C(=C\C(=O)O[C@H]1[C@@H]2[C@H](C)CC[C@H]2[C@]2(C)O[C@@]1(C(C)C)C[C@H]2NC(=O)CO)c1ccccc1 | > 100 µM
* CC(C)[C@@]12C[C@@H](NC(=O)CO)[C@@](C)(O1)[C@@H]1CC[C@@H](C)[C@H]1[C@@H]2OC(=O)/C=C/C1CCCCC1 | > 44.7 µM
* CC(C)[C@@]12C[C@@H](NC(=O)CO)[C@@](C)(O1)[C@@H]1CC[C@@H](C)[C@H]1[C@@H]2OC(=O)/C=C/c1ccccc1 | > 50.1 µM

Moving on to another compound below.
Query: Look up Malme-3M data: LC50 of CC(C)[C@@]12C[C@@H](NC(=O)CO)[C@@](C)(O1)[C@@H]1CC[C@@H](C)[C@H]1[C@@H]2OC(=O)c1ccc2ccccc2c1 , then report it.
Response: 69.2 µM
